Entries and their measured MIC follow.
- System: Agromyces mediolanus
- TEST: Antimicrobial activity against Corynebacterium mediolanum by serial dilution method
- Assay type: functional

COC(=O)CC/C=C/[C@@H](O)C/C=C/C=C/C=C/CC/C=C/C=C/[C@@H](O)[C@@H](C)COCc1ccc(OC)cc1	> 80 mg/L
COC(=O)CC/C(C)=C/[C@@H](O)C/C=C/C=C/C=C/C=C/C=C/C(C)=C/[C@@H](O)[C@@H](C)COCc1ccc(OC)cc1	> 40 mg/L
CO[C@@H]1C/C=C\C=C\C[C@H](C)[C@@H](O)[C@H](C)[C@@H](O)[C@H](C)[C@H](O)CC(=O)O[C@H]([C@H](C)[C@H](O)/C=C(C)/C=C/C=C/C=C/C=C/C=C/C[C@H](O)/C(C)=C/CCC(=O)O)C[C@H](O)CCC1 [ETNANGIEN]	0.06 mg/L
COC(=O)CC/C=C/[C@@H](O)C/C=C/C=C/C=C/CC/C=C/C=C/[C@@H](O)[C@@H](C)CO	40 mg/L

Ask: Report measured MIC on Agromyces mediolanus; entry: `COC(=O)CC/C=C/[C@@H](O)C/C=C/C=C/C=C/C=C/C=C/[C@@H](O)[C@@H](C)COCc1ccc(OC)cc1`
Reply: > 80 mg/L

Ask: With Agromyces mediolanus as the test system, provide measured MIC for this compound: `COC(=O)CC/C=C/[C@@H](O)C/C=C/C=C/C=C/C=C/C=C/[C@@H](O)[C@@H](C)CO`
Reply: > 80 mg/L

Where do these numbers come from? They come from ChEMBL document CHEMBL2062489.
